Overview of recorded IC50 for various compounds
- Test system: Wnt signaling
- assayText: TopFlash reporter gene bioassay in SW480 cells
- Type: cell-based
- reportedConditions: Homo sapiens, SW480, TopFlash reporter gene assay, inhibition of Wnt signaling; read-out: RGA, IC50 (μM) TopF
Phrase the answer as number then unit, nothing more needed.

1) C=CCN1CC(=O)N2[C@@H](Cc3ccc(O)cc3)C(=O)N(Cc3ccnc(-c4ccccc4)n3)C[C@@H]2N1C(=O)NCc1ccccc1 [compound 176]: 2.37 µM

Supply reported IC50 belonging to this compound: C=CCN1CC(=O)N2[C@@H](Cc3ccc(O)cc3)C(=O)N(Cc3cccc(C(=O)NC)n3)C[C@@H]2N1C(=O)NCc1ccccc1 [compound 48] 0.7 µM

Supply reported IC50 belonging to this compound: C=CCN1CC(=O)N2[C@@H](Cc3ccc(O)cc3)C(=O)N(Cc3ccc(OC)c(OC)c3)C[C@@H]2N1C(=O)NCc1ccccc1 [compound 175] 2.36 µM

---

- Test system: Wnt signaling
- assayText: TopFlash reporter gene bioassay in SW480 cells
- Type: cell-based
- reportedConditions: Homo sapiens, SW480, TopFlash reporter gene assay, inhibition of Wnt signaling; read-out: RGA, IC50 (μM) TopF
In plain terms, low IC50, meaning strictly below 1 µM, gives Satisfied, and everything else gives Not satisfied.

1) C=CCN1CC(=O)N2[C@@H](Cc3ccc(O)cc3)C(=O)N(Cc3cccc(Oc4ccccc4)c3)C[C@@H]2N1C(=O)NCc1ccccc1: Not satisfied
2) C=CCN1CC(=O)N2[C@@H](Cc3ccc(O)cc3)C(=O)N(Cc3ccccc3S(=O)(=O)c3ccc(Cl)cc3)C[C@@H]2N1C(=O)NCc1ccccc1: Not satisfied
3) C=CCN1CC(=O)N2[C@@H](Cc3ccc(O)cc3)C(=O)N(Cc3cccc4cc[nH]c34)C[C@@H]2N1C(=O)NCc1ccccc1: Satisfied
4) C=CCN1CC(=O)N2[C@@H](Cc3ccc(O)cc3)C(=O)N(Cc3cccnc3-c3cccnc3)C[C@@H]2N1C(=O)NCc1ccccc1: Not satisfied
5) C=CCN1CC(=O)N2[C@@H](Cc3ccc(O)cc3)C(=O)N(Cc3cccc(-c4cccnc4)c3)C[C@@H]2N1C(=O)NCc1ccccc1: Satisfied
6) C=CCN1CC(=O)N2[C@@H](Cc3ccc(O)cc3)C(=O)N(Cc3ccc(F)c4scnc34)C[C@@H]2N1C(=O)NCc1cccs1: Not satisfied
7) C=CCN1CC(=O)N2[C@@H](Cc3ccc(O)cc3)C(=O)N(Cc3cccc(-c4cccc(C#N)c4)n3)C[C@@H]2N1C(=O)NCc1ccccc1: Not satisfied
8) C=CCN1CC(=O)N2[C@@H](Cc3ccc(O)cc3)C(=O)N(Cc3cccnc3-c3cccc(C#N)c3)C[C@@H]2N1C(=O)NCc1ccccc1: Not satisfied
9) C=CCN1CC(=O)N2[C@@H](Cc3ccc(O)cc3)C(=O)N(Cc3cccc(C(=O)OCC)n3)C[C@@H]2N1C(=O)NCc1ccccc1: Not satisfied
10) C=CCN1CC(=O)N2[C@@H](Cc3ccc(O)cc3)C(=O)N(Cc3cccc(C(=O)NC)c3)C[C@@H]2N1C(=O)NCc1ccccc1: Not satisfied

Bench note: check whether `C=CCN1CC(=O)N2[C@@H](Cc3ccc(O)cc3)C(=O)N(Cc3cccc(C(C)(C)C)c3OC)C[C@@H]2N1C(=O)NCc1ccccc1` shows IC50 below 1 µM Not satisfied

Bench note: check whether `C=CCN1CC(=O)N2[C@@H](Cc3ccc(O)cc3)C(=O)N(Cc3cccc(NS(N)(=O)=O)c3)C[C@@H]2N1C(=O)NCc1ccccc1` shows IC50 below 1 µM Not satisfied

Bench note: check whether `C=CCN1CC(=O)N2[C@@H](Cc3ccc(O)cc3)C(=O)N(Cc3ccc(OCCCCC)cc3)C[C@@H]2N1C(=O)NCc1ccccc1` shows IC50 below 1 µM Not satisfied

Bench note: check whether `C#Cc1ccc(CNC(=O)N2[C@H]3CN(Cc4ccc(F)c5scnc45)C(=O)[C@H](Cc4ccc(O)cc4)N3C(=O)CN2CC=C)cc1` shows IC50 below 1 µM Satisfied

Bench note: check whether `C=CCN1CC(=O)N2[C@@H](Cc3ccc(O)cc3)C(=O)N(Cc3cccc(OC)c3OC)C[C@@H]2N1C(=O)NCc1ccccn1` shows IC50 below 1 µM Not satisfied

Bench note: check whether `C=CCN1CC(=O)N2[C@@H](Cc3ccc(O)cc3)C(=O)N(Cc3cccc4c3ncn4CCC)C[C@@H]2N1C(=O)NCc1ccccc1` shows IC50 below 1 µM Satisfied
